Measured values drawn from patent US9458104B2 for this set.

Target: RORγ (UniProt P51449)
Construct: hRORg-LBD|aa259-518|NP_005051.2; hRORgt|aa1-497|NP_001001523 (RORg, t isoform, 497aa); mRORg-LBD|aa264-516|NP_035411
Sequence (P51449 1-518): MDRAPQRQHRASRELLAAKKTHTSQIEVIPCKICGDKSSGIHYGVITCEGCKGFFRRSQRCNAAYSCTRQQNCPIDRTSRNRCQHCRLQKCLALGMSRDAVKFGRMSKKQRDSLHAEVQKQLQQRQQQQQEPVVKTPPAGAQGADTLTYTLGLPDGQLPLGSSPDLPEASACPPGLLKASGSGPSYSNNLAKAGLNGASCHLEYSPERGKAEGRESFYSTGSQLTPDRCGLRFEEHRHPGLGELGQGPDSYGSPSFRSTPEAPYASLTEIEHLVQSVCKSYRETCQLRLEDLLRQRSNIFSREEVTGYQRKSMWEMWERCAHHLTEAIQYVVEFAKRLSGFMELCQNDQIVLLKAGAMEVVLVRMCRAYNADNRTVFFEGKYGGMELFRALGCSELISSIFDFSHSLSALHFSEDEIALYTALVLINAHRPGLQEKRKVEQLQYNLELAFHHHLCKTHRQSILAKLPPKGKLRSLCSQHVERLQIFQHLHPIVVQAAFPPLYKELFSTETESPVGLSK
Assay type: cell-based
Settings: firefly (FF) luciferase, 293T cells, 16 h
Output criterion met for pIC50 (FF) not less than 7; output criterion not met otherwise.

Cc1cc(-n2nc(C(=O)NC3CC3)cc2CC2CCCCC2)cc(C(C)(C)C)c1 : criterion not met
Cn1c(C(=O)NC23CCC(C(=O)O)(CC2)C3)cc(-c2cc(C(C)(C)C)cc(C3(C)CC3)c2)c1CC1CCCCC1 : criterion met
Cc1c(C(=O)CC2CC2)cc(-c2cc(C(C)(C)C)cc(C(C)(C)C)c2)n1CC1CCCCC1 : criterion not met

Request: Could you please find out whether Cc1c(C(=O)NCCC(C)(C)C(=O)O)c(Cl)n(-c2ccc(S(=O)(=O)NC(C)(C)C)c(C(F)(F)F)c2)c1CC1CCCCC1 has pIC50 (FF) that meets 7 or exceeds it?
Response: criterion met

Request: Could you please find out whether Cn1c(C(=O)NCC(C)(C)O)cc(-c2cc(C(C)(C)C)cc(C3(C)CC3)c2)c1C(=O)C1CCCCC1 has pIC50 (FF) that meets 7 or exceeds it?
Response: criterion met

Request: Could you please find out whether C=CCCC(=O)c1cc(-c2cc(C(C)(C)C)cc(C(C)(C)C)c2)n(CC2CCCCC2)c1C has pIC50 (FF) that meets 7 or exceeds it?
Response: criterion not met

Request: Could you please find out whether CC(=O)c1cc(-c2cc(C(C)(C)C)cc(C(C)(C)C)c2)n(CC2CCCCC2)c1C has pIC50 (FF) that meets 7 or exceeds it?
Response: criterion not met

Request: Could you please find out whether Cc1c(C(=O)NC2CCOCC2)cn(-c2ccc(S(=O)(=O)NC(C)(C)C)c(C(C)(C)C)c2)c1CC1CCCCC1 has pIC50 (FF) that meets 7 or exceeds it?
Response: criterion met

Request: Could you please find out whether CC(C)NC(=O)c1cc(CC2CCCCC2)n(-c2cc(C(C)(C)C)cc(C(C)(C)C)c2)n1 has pIC50 (FF) that meets 7 or exceeds it?
Response: criterion not met

Request: Could you please find out whether Cn1c(C(=O)N[C@H]2C[C@H](C(=O)O)C2)cc(-c2cc(C(C)(C)C)cc(C3(C)CC3)c2)c1C(=O)C1CCCCC1 has pIC50 (FF) that meets 7 or exceeds it?
Response: criterion met
